# key: entry, value: inhibition
procedureSummary: yeast transport mutant growth inhibition pilot in 384-well plates, post-Golgi transport modulator project (AID 636); further: test concentration not given here
testContext: absorbance 615 nm, about 18 h, stronger effect = higher value
endpoint: inhibition (%)

[[record]]
molecule = "Cn1c(SCC(=O)Nc2ccc(F)cc2)nnc1-c1cccnc1"
measured = -3.87

[[record]]
molecule = "Cc1nonc1NC(=O)c1ccccc1Br"
measured = -3.6

[[record]]
molecule = "CC(C)(C)NC(=O)Cn1c(=O)oc2ccc(Cl)cc21"
measured = -2.4

[[record]]
molecule = "Cc1nc2sc(C(c3cccs3)N3CCOCC3)c(O)n2n1 (stereo not drawn)"
measured = -7.73

[[record]]
molecule = "Cc1ccc(-c2nc3cc(NC(=O)C(C)C)ccc3o2)cc1"
measured = -1.92

[[record]]
molecule = "CCCCNC(=O)Cn1c(=O)n(C)c2ccccc21"
measured = -5.07

[[record]]
molecule = "c1ccn2c(SCc3ccc4c(c3)OCCO4)nnc2c1"
measured = -3.47

[[record]]
molecule = "COc1ccc(-n2nnnc2SCC(=O)N2CCOCC2)cc1"
measured = -4.67

[[record]]
molecule = "CCn1c(SCC(=O)Nc2ccc(Cl)cc2)nnc1C1CC1"
measured = -2.27

[[record]]
molecule = "COC(=O)CN1C(=O)CC(C)(C)S(=O)c2ccccc21 (stereo not drawn)"
measured = -4.4

[[record]]
molecule = "Cc1ccc(N(C(=O)c2ccncc2)C2C=CS(=O)(=O)C2)cc1 (stereo not drawn)"
measured = 0.51

[[record]]
molecule = "C/C=C/CSc1nc2c(c(=O)[nH]c(=O)n2C)n1Cc1ccc(C)cc1"
measured = -1.6

[[record]]
molecule = "Cc1ccc(S(=O)(=O)c2nc(-c3ccco3)oc2SCC(=O)NCC2CCCO2)cc1 (stereo not drawn)"
measured = -0.13

